Origin of measurements: the supplement of paper PMC13380429

Test system: Vero E6
Test: relative viability EC50 (midpoint between 100% and the lowest measured viability); higher = less toxic
Conditions: 72 h
Structures can show the parent of a compound that is named as a salt.
Task for the reader: assign each of the following molecules its reported relative viability EC50.

I'm hoping you can list relative viability EC50 for every molecule here, please.
1. NC(=O)c1ccc(-c2nc(-c3ccc4c(c3)OCCO4)c(-c3ccccn3)[nH]2)cc1
2. Nc1ncnc2c1ncn2[C@@H]1O[C@H](CO)[C@@H](O)[C@H]1O
3. O=C(O)C(=O)Nc1cccc(-c2nnn[nH]2)c1
4. O/N=C/c1ccc(-c2ccc(O)c(F)c2)c(Cl)c1O
5. O=C(O)[C@H](O)[C@@H](O)[C@H](O[C@@H]1O[C@H](CO)[C@H](O)[C@H](O)[C@H]1O)[C@H](O)CO
6. Cc1n[nH]c(C)c1Cc1sc2c(c1C(=O)N1C[C@H](O)CO1)c(=O)n(C)c(=O)n2CC(C)C
7. C[C@]12CC[C@H](O)C[C@H]1CC[C@@H]1[C@@H]2C[C@@H](O)[C@]2(C)[C@@H](C3=CC(=O)OC3)CC[C@]12O

1: > 10 µM; 2: > 10 µM; 3: > 10 µM; 4: > 10 µM; 5: > 10 µM; 6: > 10 µM; 7: 0.163 µM

Quick one: give me relative viability EC50 for each item below, same order please.
1. CNCc1ccc(-c2cc(-c3nc(-c4ccc(S(=O)(=O)C(C)C)cc4)cnc3N)on2)cc1
2. CCC(=O)N1CCN(c2ccc(-n3c(=O)ccc4cnc5ccc(-c6cnc7ccccc7c6)cc5c43)cc2C(F)(F)F)CC1

1. 1.97 µM
2. 0.404 µM

Working through the 8 molecules below one at a time, give relative viability EC50 for each.
1. CC/C(=C(\c1ccc(O)cc1)c1ccc(OCCNC)cc1)c1ccccc1 [Endoxifen HCl]
2. CC1(C)OC(=O)C(OCC2CC2)=C1c1ccc(S(C)(=O)=O)cc1
3. C[C@@](Cc1ccc(O)c(O)c1)(NN)C(=O)O
4. C=C1/C(=C\C=C2/CCC[C@]3(C)[C@@H]([C@H](C)CCCC(C)C)CC[C@@H]23)C[C@@H](O)C[C@@H]1O
5. CN1C(=O)CC(c2ccccc2)C1=O (stereo unspecified) [phensuximide]
6. COc1ccc(S(=O)(=O)N2CCC[C@H]2C(=O)Nc2cc(C)cc(C)c2)cc1
7. Cc1cc(C(=O)Nc2cccc(C(=O)Nc3cccc(C(F)(F)F)c3)c2)on1
8. CC(C)NC(=O)N1CC[C@H](NC2=Nc3cc(F)ccc3N(CC(F)F)c3ccc(Cl)cc32)C1

1: > 10 µM; 2: > 10 µM; 3: > 10 µM; 4: > 10 µM; 5: > 10 µM; 6: > 10 µM; 7: > 10 µM; 8: 2.24 µM

For every item below, please supply its relative viability EC50.
1. CC(=O)/N=c1/[nH]c(C)c(-c2ccc(Cl)c(S(=O)(=O)NCCO)c2)s1
2. C[C@H]1O[C@@H](n2cc(F)c(=O)[nH]c2=O)[C@H](O)[C@@H]1O

["> 10 µM", "> 10 µM"]

State recorded relative viability EC50 for all listed molecules.
1. CCOc1ccccc1N/N=C1/C(=O)N(c2nc(-c3ccccc3)cs2)N=C1C
2. Cc1cc(C)cc(NC(=O)Nc2ccc(OS(N)(=O)=O)cc2)c1
3. CCCCCCc1ccc(O)cc1O
4. Cc1ccc2c(c1)c1c3n2CCNC3CCC1 (stereo unspecified)
5. NCC(=O)N[C@@H](CCC(N)=O)C(=O)O

1. > 10 µM
2. > 10 µM
3. > 10 µM
4. > 10 µM
5. > 10 µM

Give one value of relative viability EC50 per listed molecule.
1. COc1cc(C(=O)NS(=O)(=O)c2ccccc2C)ccc1Cc1cn(C)c2ccc(NC(=O)OC3CCCC3)cc12
2. CN(CCc1ccc(Cl)c(Cl)c1)CCN1CCCC1
3. CCOC(=O)C1=C(N)Oc2ccc(Br)cc2C1C(C#N)C(=O)OCC (stereo unspecified)
4. N#Cc1ccc(NCCNCC(=O)N2CCC[C@H]2C#N)nc1
5. CC(C)c1cc(CNc2nc(Nc3cc(C4CC4)[nH]n3)cc(N3CCN(C)CC3)n2)on1
6. CCc1nc2ccc(Cl)cn2c1C(=O)NCc1ccc(N2CCC(c3ccc(OC(F)(F)F)cc3)CC2)cc1

["> 10 µM", "> 10 µM", "> 10 µM", "> 10 µM", "1.35 µM", "> 10 µM"]

Consider the following items and state reported relative viability EC50 for each.
1. CC(C)C[C@@H](C=O)NC(=O)[C@H](CC(C)C)NC(=O)[C@H](CC(C)C)NC(=O)OCc1ccccc1
2. CCOc1ccc(-c2ccc(Cn3c(CC(C)(C)C(=O)O)c(SC(C)(C)C)c4cc(OCc5ccc(C)cn5)ccc43)cc2)cn1
3. OCCCNc1ccccc1
4. Cc1c[nH]c2ncnc(N3CCC(CN)(C(=O)Nc4cccc(OC(=O)N(C)C)c4)CC3)c12
5. O=C(O)CCC(=O)OC[C@@H](NC(=O)C(Cl)Cl)[C@H](O)c1ccc([N+](=O)[O-])cc1 [chloramphenicol-sodium-succinate]

1. 0.94 µM
2. > 10 µM
3. > 10 µM
4. > 10 µM
5. > 10 µM

Return reported relative viability EC50; argument: CC(=O)NCCC(=O)N[C@@H](Cc1c[nH]cn1)C(=O)O > 10 µM
